The following compounds are listed with their measured Population Membrane Permeable-Phenotype (%) values.
System: Fibroblast
procedure.text: Multiplex assay against human fibroblast
Format: toxicity, cell-based
condition.description: 24 h, 10 µM, compound concentration 10 uM, replicate 2
endpoint.name: Population Membrane Permeable-Phenotype (%)

| compound | measured |
| --- | --- |
| NC(=O)c1cccc(-c2cc(Nc3ccc(OC(F)(F)F)cc3)ncn2)c1 | 21 |
| O=C(Nc1ccc(-c2ccnc(Nc3ccc(N4CCOCC4)cc3)n2)cc1)[C@@H]1CCCN1 | 13 |
| Cl.Oc1ccc2c3c1O[C@H]1c4[nH]c5c(c4C[C@@]4(O)[C@@H](C2)N(CC2CC2)CC[C@]314)C[C@@]1(O)[C@H]2Cc3ccc(O)c4c3[C@@]1(CCN2CC1CC1)[C@H]5O4 | 48 |
| CN(C)C(=O)C(CCN1CCC(O)(c2ccc(Cl)cc2)CC1)(c1ccccc1)c1ccccc1.Cl [LOPERAMIDE HYDROCHLORIDE] | 86 |
| O=C(Nc1cccnn1)N1CCC(=Cc2cccc(Oc3ccc(C(F)(F)F)cn3)c2)CC1 | 12 |
| COc1ccc(S(=O)(=O)N(CCO)c2ccccc2CN(C)C/C=C/c2ccc(Cl)cc2)cc1.O=P(O)(O)O | 18 |
| CCN1CCN(c2ccc(Nc3cc(N(C)C(=O)Nc4c(Cl)c(OC)cc(OC)c4Cl)ncn3)cc2)CC1 | 9 |

---

Tested on: Fibroblast
procedure.text: Multiplex assay against human fibroblast
Assay type: toxicity, cell-based
condition.description: 12 h, 1 µM, compound concentration 1 uM, replicate 1
endpoint.name: Population Membrane Permeable-Phenotype (%)

| compound | measured |
| --- | --- |
| CN[C@@H]1C[C@H]2O[C@@](C)([C@@H]1OC)n1c3ccccc3c3c4c(c5c6ccccc6n2c5c31)C(=O)NC4 | 13 |
| COc1cc2ncnc(Nc3ccc(F)c(Cl)c3)c2cc1NC(=O)/C=C/CN1CCCCC1 [DACOMITINIB ANHYDROUS] | 6 |
| O=C(Cc1ccc(-c2ccc(OCCN3CCOCC3)cc2)cn1)NCc1ccccc1 | 18 |
| CCCn1c(=O)c2[nH]c(-c3cnn(Cc4cccc(C(F)(F)F)c4)c3)nc2n(CC)c1=O | 33 |

---

System: U2OS
procedure.text: Multiplex assay against U2OS
Type: toxicity, cell-based
condition.description: human, 24 h, 10 µM, compound concentration 10 uM, replicate 1
Listing of recorded Population Mitochondria Different-Phenotype (%) by entry.
endpoint.name: Population Mitochondria Different-Phenotype (%)

| compound | study.target | endpoint.unit | measured |
| --- | --- | --- | --- |
| CN1CCN(C(=O)C(C)(C)c2ccc(C(=O)Nc3cn4cc(-c5cc(C(C)(C)C)cc(C(C)(C)C)c5)ccc4n3)cc2)CC1 | U2OS | % | 27 |
| COc1cccc2cc(-c3nc([C@H]4CC[C@H](C(=O)O)CC4)n4ncnc(N)c34)[nH]c12 | U2OS | % | 20 |
| CCOc1cc(C(=O)N2CCC(N3CCN(C)CC3)CC2)ccc1Nc1ncc2c(n1)N(C1CCCC1)c1ccccc1C(=O)N2C | U2OS | % | 100 |
| O=C(Nc1ccc(Cl)cc1)Nc1cccc(-c2cccc(N3CCCC3)n2)c1 | U2OS | % | 13 |
| O=C(Nc1ccc(-n2nc(-c3cccnc3)cc2C(F)(F)F)cn1)c1ccc(-c2ccccc2)c(F)c1 | U2OS | % | 21 |
| COc1cc2ncnc(Nc3ccc(F)c(Cl)c3)c2cc1NC(=O)/C=C/CN1CCCCC1 [DACOMITINIB ANHYDROUS] | U2OS | % | 10 |
| Cc1ccc2nc(NCCN)c3ncc(C)n3c2c1.O=C(O)C(F)(F)F.O=C(O)C(F)(F)F | U2OS | % | 26 |
| CNc1cc(Oc2cc(C(=O)Nc3cc(N4CCN(C)CC4)cc(C(F)(F)F)c3)ccc2C)ncn1 | U2OS | % | 100 |
| Cl.Oc1ccc2c3c1O[C@H]1c4[nH]c5c(c4C[C@@]4(O)[C@@H](C2)N(CC2CC2)CC[C@]314)C[C@@]1(O)[C@H]2Cc3ccc(O)c4c3[C@@]1(CCN2CC1CC1)[C@H]5O4 | U2OS | % | 8 |
| CCn1cc(-c2ccnc3[nH]c(-c4cccc(CN(C)C)c4)cc23)c(-c2ccc(NC(=O)N(C)C)cc2)n1 | U2OS | % | 85 |
| O=C1N/C(=N/c2ccccc2F)S/C1=C\c1ccc(C(=O)O)cc1 | U2OS | % | 10 |
| CN1CCC(=C2c3ccccc3CC(=O)c3sccc32)CC1.O=C(O)/C=C/C(=O)O [KETOTIFEN FUMARATE] | U2OS | % | 96 |
| CCn1c(=O)c(-c2ccc(-c3cncs3)cc2Cl)cc2cnc(Nc3ccc(N4CCN(C)CC4)cc3)nc21 | U2OS | % | 100 |
| CNC(=O)c1ccc(Nc2nc(OC3CCCC3)c3c(-c4ccc5nc(C)oc5c4)c[nH]c3n2)c(OC)c1 | U2OS | % | 18 |
| CCc1cccc(CC)c1NC(=O)c1nn(C)c2c1CCc1cnc(Nc3ccc(C(=O)NC4CCN(C)CC4)cc3OC(F)(F)F)nc1-2 | U2OS | % | 100 |

---

Tested on: U2OS
procedure.text: Multiplex assay against U2OS
Assay type: toxicity, cell-based
condition.description: human, 12 h, 10 µM, compound concentration 10 uM, replicate 2

| compound | Population Mitotic Cells (%) |
| --- | --- |
| CCn1c(=O)c(-c2ccc(-c3cncs3)cc2Cl)cc2cnc(Nc3ccc(N4CCN(C)CC4)cc3)nc21 | 88 |
| Cc1cn(-c2cc(NC(=O)c3ccc(C)c(Nc4nccc(-c5cccnc5)n4)c3)cc(C(F)(F)F)c2)cn1 [NILOTINIB] | 66 |
| CNC(=O)c1ccc(Nc2nc(OC3CCCC3)c3c(-c4ccc5nc(C)oc5c4)c[nH]c3n2)c(OC)c1 | 75 |
| CN1C2CCC1CC(OC(c1ccc(F)cc1)c1ccc(F)cc1)C2.Cl (configuration not stated) | 20 |
| CNc1cc(Oc2cc(C(=O)Nc3cc(N4CCN(C)CC4)cc(C(F)(F)F)c3)ccc2C)ncn1 | 26 |
| O=C1N/C(=N/c2ccccc2F)S/C1=C\c1ccc(C(=O)O)cc1 | 55 |
| COc1cccc2cc(-c3nc([C@H]4CC[C@H](C(=O)O)CC4)n4ncnc(N)c34)[nH]c12 [OSI-027] | 85 |
| CCCn1c(=O)c2[nH]c(-c3cnn(Cc4cccc(C(F)(F)F)c4)c3)nc2n(CC)c1=O [GS 6201] | 50 |
| CN1CCN(C(=O)C(C)(C)c2ccc(C(=O)Nc3cn4cc(-c5cc(C(C)(C)C)cc(C(C)(C)C)c5)ccc4n3)cc2)CC1 [T3-CLK-N] | 50 |
| CCCS(=O)(=O)Nc1ccc(F)c(C(=O)c2c[nH]c3ncc(Cl)cc23)c1F [PLX-4720] | 100 |
| NC(=O)c1cccc(-c2cc(Nc3ccc(OC(F)(F)F)cc3)ncn2)c1 | 54 |
| CCCS(=O)(=O)c1nc(NC2CC2)cc(-c2ccc3c(ccn3C3CC(C)(C)NC(C)(C)C3)c2)n1 | 7 |
| Cc1ccc(C(=O)Nc2cccc(C(F)(F)F)c2)cc1Nc1nc(-c2cccnc2)nc2c1cnn2C | 38 |
| C=C1/C(=C\C=C2/CCC[C@]3(C)[C@@H]([C@H](C)/C=C/[C@H](C)C(C)C)CC[C@@H]23)C[C@@H](O)C[C@@H]1O [DOXERCALCIFEROL] | 100 |
| CCc1cccc(CC)c1NC(=O)c1nn(C)c2c1CCc1cnc(Nc3ccc(C(=O)NC4CCN(C)CC4)cc3OC(F)(F)F)nc1-2 | 53 |
| O=C(Nc1ccc(-c2ccnc(Nc3ccc(N4CCOCC4)cc3)n2)cc1)[C@@H]1CCCN1 | 22 |
| Cc1ccc2nc(NCCN)c3ncc(C)n3c2c1.O=C(O)C(F)(F)F.O=C(O)C(F)(F)F | 50 |
| CCc1cccc(CC)c1NC(=O)c1nn(C)c2c1CCc1cnc(Nc3ccc(N4CCN(C)CC4)cc3OC)nc1-2 | 50 |
| COc1cc(N2CCN(C)CC2)ccc1Nc1ncc2c(n1)N(C)c1ccccc1C(=O)N2C | 33 |
| CCN1CCN(c2ccc(Nc3cc(N(C)C(=O)Nc4c(Cl)c(OC)cc(OC)c4Cl)ncn3)cc2)CC1 [INFIGRATINIB] | 83 |
| Cl.Oc1ccc2c3c1O[C@H]1c4[nH]c5c(c4C[C@@]4(O)[C@@H](C2)N(CC2CC2)CC[C@]314)C[C@@]1(O)[C@H]2Cc3ccc(O)c4c3[C@@]1(CCN2CC1CC1)[C@H]5O4 | 6 |
| CN1CCC(=C2c3ccccc3CC(=O)c3sccc32)CC1.O=C(O)/C=C/C(=O)O [KETOTIFEN FUMARATE] | 66 |
| CCOc1cc(C(=O)N2CCC(N3CCN(C)CC3)CC2)ccc1Nc1ncc2c(n1)N(C1CCCC1)c1ccccc1C(=O)N2C | 7 |
| COc1ccc(S(=O)(=O)N(CCO)c2ccccc2CN(C)C/C=C/c2ccc(Cl)cc2)cc1.O=P(O)(O)O | 0 |
| O=C(Nc1ccc(Cl)cc1)Nc1cccc(-c2cccc(N3CCCC3)n2)c1 | 27 |
| CN(C)C(=O)C(CCN1CCC(O)(c2ccc(Cl)cc2)CC1)(c1ccccc1)c1ccccc1.Cl [LOPERAMIDE HYDROCHLORIDE] | 17 |
| COc1ccc(-c2ccc3c(N4CCOCC4)nc(N4C[C@@H](C)O[C@@H](C)C4)nc3n2)cc1CO [Ku-0063794] | 66 |
| S=C(NCCCc1c[nH]cn1)NCCCN(Cc1ccc(Cl)c(Cl)c1)c1ccc(Br)cn1 | 6 |
| CCN1CCN(Cc2ccc(Nc3ncc(F)c(-c4cc(F)c5nc(C)n(C(C)C)c5c4)n3)nc2)CC1.CS(=O)(=O)O | 16 |
| C=CCn1c(=O)c2cnc(Nc3ccc(N4CCN(C)CC4)cc3)nc2n1-c1cccc(C(C)(C)O)n1 [ADAVOSERTIB] | 55 |
| CCOC(=O)c1c(C)[nH]c2ccc3c(c12)CN1CCc2cc(OC)ccc2C1O3 (configuration not stated) | 20 |
| Cl.O=c1c2cccn2c2ccccc2n1CCCN1CCC(c2ccc(Cl)cc2)CC1 | 21 |
